test system: Plasmodium falciparum; assay: GSK_TCMDC: Inhibition of Plasmodium falciparum 3D7 in whole red blood cells, using parasite LDH activity as an index of growth. Test compounds present at 2uM; type: functional
Metric: Inhibition (%)
Numbers only, in %.

Use the examples below as a reference point.
# Molecule, Metric, Readout Number
rows = [
    ("CC(C)Cn1c(Sc2ccc(C#N)c([N+](=O)[O-])c2)nnc1-c1cccs1", "Inhibition", 90),
    ("COc1ccc2[nH]c(C(=O)Nc3cccc(-c4ccc(CN(C)C)cc4)c3)cc2c1", "Inhibition", 100),
    ("CCc1c(C)nc(-n2nc(C)cc2NC(=O)CC(c2ccccc2)c2ccccc2)[nH]c1=O", "Inhibition", 97),
    ("Cc1ccc(NC(=O)c2ccc3ncccc3c2)cc1OC1CCN(CCC(C)C)CC1.O=C(O)C(F)(F)F", "Inhibition", 94),
    ("Cc1ccc(-n2cc(CNCCc3nc(C)c[nH]3)c(-c3ccc(F)cc3)n2)cc1", "Inhibition", 86),
    ("CN1CCCN(Cc2ccc(-c3cccc(NC(=O)c4cccc(C#N)c4)c3)cc2)CC1.O=C(O)C(F)(F)F", "Inhibition", 100),
]

Provide each entry's Inhibition from the list below.
1. COc1ccc2nccc([C@@H](O)CN3CCC(NC(=O)Cc4cccc5c(Br)cccc45)CC3)c2c1
2. COc1ccc(CCNCCCCCCNCCc2ccc(OC)c(OC)c2Cl)c(Cl)c1OC.Cl
3. Cc1cc(C)c(NC(=O)NC2CCN(CCCCCNC(=O)/C=C/c3ccc(Cl)c(Cl)c3)C2)c(C)c1 (configuration not stated)

Result:
1: 99; 2: 96; 3: 99

Provide each entry's Inhibition from the list below.
1. N=C(N)NC(=O)Nc1cc(Cl)c(Br)c(Cl)c1
2. C[C@H](Nc1c(Nc2ccc3[nH]ccc3c2)c(=O)c1=O)C1CCCCC1
3. Br.CCC(CCON1C(N)=NC(N)=NC1(C)C)c1ccc(Cl)cc1 (configuration not stated)
4. Cl.Clc1cnc2ccc3c(c2c1CCN1CCC(NCc2cc4c(cn2)OCCO4)CC1)OCCO3
5. CNC(=O)C1Cc2c([nH]c3cc(Cl)ccc23)C2(CCN(CCc3ccccc3)CC2)N1 (configuration not stated)
6. CN(C)CCCNc1ncnc2c1[nH]c1ccc(Cl)cc12

Result:
1: 100; 2: 96; 3: 94; 4: 92; 5: 91; 6: 99

Provide each entry's Inhibition from the list below.
1. CN(C)CCOc1cc(NC(=O)Nc2ccc(-c3ccncc3)c(Cl)c2)ccc1I
2. CC(C)c1ccc(NC(=O)NC2CCN(CCCCCN(C)C(=O)/C=C/c3ccc(Cl)c(Cl)c3)C2)cc1 (configuration not stated)

Result:
1. 100
2. 99

Provide each entry's Inhibition from the list below.
1. C[C@H](NC(=O)C1CCCC1)C(=O)Nc1ccc(-c2ccc(-c3nc4cc(C(F)(F)F)ccc4[nH]3)cc2)cc1
2. O=C(O)C(F)(F)F.O=S(=O)(NC1CCN(c2ccnc3ccccc23)C1)c1ccc(OC(F)(F)F)cc1 (configuration not stated)
3. O=C(/C=C/c1ccc(Cl)c(Cl)c1)NCCCCCN1CCCC(C(=O)Nc2ccc(Cl)c(Cl)c2)C1 (configuration not stated)

Result:
1: 99; 2: 88; 3: 100

Provide each entry's Inhibition from the list below.
1. COc1ccc2nccc(NC(=O)N3CCC(NCc4cc5c(F)ccc(F)c5[nH]4)CC3)c2n1.O=C(O)C(=O)O
2. CC[C@H](C)CNC(=O)c1ccnc(-c2ccc(CNCCCc3ccccc3)cc2)c1.O=C(O)C(F)(F)F
3. CC(C)c1ccc2c(c1)c(SC(C)(C)C)c(CC(C)(C)C#N)n2Cc1ccc(Cl)cc1

Result:
99
100
96

Provide each entry's Inhibition from the list below.
1. Nc1cc(-c2cc3c(OCc4ccccc4)cccc3[nH]2)ccn1
2. O=C1SC(=Cc2ccc(O)c(O)c2)C(=O)N1c1ccccc1
3. Cc1cc(N2CCN(C)CC2)nc2ccc(NC(=O)c3cccc(N(C)C)c3)cc12

Result:
1: 85; 2: 91; 3: 85

Provide each entry's Inhibition from the list below.
1. Cc1cccc2nc(-c3cccc(-c4ccc(NC(=O)Cc5ccon5)cc4)c3)[nH]c12
2. COc1cc(C(=O)N2CCN(C(C)C)CC2)ccc1CN(C)CCCCN1CCN(c2cccc(Cl)c2Cl)CC1.Cl
3. Cc1cc(-c2ccc(CNCCc3cccs3)cc2)ccc1S(=O)(=O)NCc1ccccc1.O=C(O)C(F)(F)F
4. CCN(CC)CCN(Cc1ccc(-c2ccc(C(F)(F)F)cc2)cc1)C(=O)Cn1c(CCc2ccc(F)cc2)nc(=O)c2sccc21.O=C(O)C(O)C(O)C(=O)O
5. COc1cccc(CNC(=O)NC2CCN(c3ccnc(Nc4cc(OC)c(OC)c(OC)c4)n3)C2)c1 (configuration not stated)

Result:
1. 87
2. 100
3. 94
4. 99
5. 93

Provide each entry's Inhibition from the list below.
1. Cc1ccccc1N1CCN(c2ccc(C(=O)Nc3ccccc3)cc2)CC1
2. Cc1cc(NCCc2ccccc2)nc(NC(=N)Nc2cccc([N+](=O)[O-])c2)n1

Result:
89
100

* * *

tested on: Plasmodium falciparum; test: GSK_TCMDC: Inhibition of Plasmodium falciparum Dd2 in whole red blood cells, using parasite LDH activity as an index of growth. Test compounds present at 2uM; type: functional
Metric: Inhibition (%)
One number for each entry, in %.

# Compound, Inhibition (%)
records = [
    ("O=S(=O)(Nc1cccc(CCN2CCCCC2CCN2CCCC2)c1)c1cccc2ccccc12 (stereo not given)", 6),
    ("CC(C)(C)c1ccc(Cc2cccc3nc(N)nc(N)c23)cc1", 51),
    ("CN(C)CCCOc1ccc(CN2CC[C@H](NC(=O)c3ccc(Cl)c(Cl)c3)C2)cc1Br.O=C(O)C(F)(F)F", 34),
    ("O=C(CCc1c[nH]cn1)Nc1cccc(-c2cccc(-c3nc4ccccc4[nH]3)c2)c1", 25),
]

Shift focus to the following entry.
Ask: Identify Inhibition associated with the compound CN(C)c1ccc(CN2CCC(CNC(=O)c3cc(-c4ccccc4Cl)cs3)C2)cc1.O=C(O)C(F)(F)F (stereo not given)
Result: 5

* * *

test system: Plasmodium falciparum; experiment: GSK_TCMDC: Inhibition of Plasmodium falciparum 3D7 in whole red blood cells, using parasite LDH activity as an index of growth. Test compounds present at 2uM; format: functional
Give Inhibition for every item shown.
// return the numeric value with its unit appended

Use the examples below as a reference point.
# Molecule, Assay System, Inhibition
rows = [
    ("CN(C)c1ccc(C=Cc2nc(=O)c3ccccc3o2)cc1", "Plasmodium falciparum", "96%"),
    ("COc1cc2nc(N3CC(C)N(C(=O)Cc4ccc(-c5ccccc5)cc4)C(C)C3)nc(N)c2cc1OC (centres undefined)", "Plasmodium falciparum", "100%"),
    ("Cc1cc2nc(-c3ccc(C(=O)NC4CCN(Cc5ccccc5)CC4)cc3)[nH]c2cc1C", "Plasmodium falciparum", "93%"),
    ("Cc1cc(C)cc(OCC(O)CN(Cc2cc(Cl)cc(Cl)c2)C(=O)Nc2ccc(Cl)cc2)c1 (centres undefined)", "Plasmodium falciparum", "97%"),
]

Provide each entry's Inhibition from the list below.
1. COc1cc(C)ccc1S(=O)(=O)N1CCCCC(c2ccc(C(F)(F)F)cc2)=N1
2. CCCCNC(=O)C(C)NC(=O)c1ccc(O)c(-c2ccc(Cl)c(Cl)c2)c1 (centres undefined)
3. COc1ccc2nccc(N3CCC(NCCNCc4cc5c(cn4)OCCO5)C3)c2n1.Cl (centres undefined)
4. COc1ccccc1C1CCN(C2CCC(NC(=O)/C=C/c3cc(F)cc(F)c3)CC2)CC1 (centres undefined)
5. O=C(O)C(F)(F)F.c1ccc(C2CCN(Cc3ccc(-c4c[nH]c5nc(NC6CCCC6)ncc45)cc3)CC2)cc1
6. CCc1ccc(-n2c(NC(=O)c3ccccc3)nc3ccc(S(=O)(=O)NC(C)C(C)C)cc32)cc1 (centres undefined)

Result:
92%
98%
99%
91%
82%
88%

Provide each entry's Inhibition from the list below.
1. COc1ccc(-c2nc3cccnc3n2CC(=O)Nc2cc(Cl)c(Cl)cc2Cl)c(OC)c1
2. COc1ccc(NC(=O)[C@H](CC(C)C)Nc2cc(C)nc(Nc3ccccc3)n2)cc1.O=C(O)C(F)(F)F
3. Cc1cccc2nc(-c3ccc(-c4ccc(C(=O)NCCN5CCCC5)cc4)cc3)[nH]c12
4. COc1ccccc1N(C)CCNc1cc(C)nc(Nc2ccc(C)cc2)n1
5. O=C(NOCCCCOc1ccc(Cl)c(Cl)c1)c1ccccc1

Result:
1: 100%; 2: 100%; 3: 100%; 4: 93%; 5: 98%

Provide each entry's Inhibition from the list below.
1. COc1ccc(CNCc2ccccc2)cc1-c1cccc(S(=O)(=O)NCCN2CCCC2)c1.O=C(O)C(F)(F)F
2. COCCOc1cccc(CN2CCC(c3cc4nc(C)cc(C(F)(F)F)n4n3)C2)c1.O=C(O)CC(O)(CC(=O)O)C(=O)O (centres undefined)
3. Cc1cc(=NN=Cc2ccccn2)c2cc(C(F)(F)F)ccc2[nH]1
4. CC(=O)Nc1ccc(OCCCCCOc2ccc(NC(C)=O)cc2Cl)c(Cl)c1

Result:
98%
85%
100%
93%
